test: Caspase-3/7 induction in CHO-K1 cells by small molecules, qHTS cell viability counter screen (AID 1346979); conditions: CellTiter-Fluor fluorescence, 17 h; series mostly up to 92.4 µM; note: nearly all actives have a fitted effect of over 35% in size
Records with an inconclusive call do not appear. Calls of active or inactive are those of the source. Calls come from the whole dose curve; as a rule, active = well fitted cell-killing curve with a large enough effect in the repeat runs; inconclusive = weak or mixed curves, or effect the other way; inactive = no such curve, though single readings can be large or run the other way.
Lab note: assign the record to one of t = active, f = inactive

Solved entries (count: 5):
Cc1cc2c(cc1C(F)(F)F)N(C(=O)Nc1ccc(Oc3cccnc3C)nc1)CC2 : t
O=[N+]([O-])c1ccccc1Nc1ccccc1 : f
CCCCCCCC/C=C/CCCCCCCC1=NCCN1CCO : t
CCCC/C=C/CCCCO : f
CNc1ccc(O)cc1 : t

Problem: Lab log entry: CCCCCCCCCCCCc1ccc(O)cc1 — outcome as called in the assay?
Result: t

Problem: Assay outcome for O=C1CCCCCN1SSN1CCCCCC1=O : what was it?
Result: t

Problem: Could you kindly confirm the outcome this assay logged for CC[C@H]1O[C@]2(CC[C@@H]1C)C[C@@H]1C[C@@H](C/C=C(\C)C[C@@H](C)/C=C/C=C3\CO[C@@H]4[C@H](O)C(C)=C[C@@H](C(=O)O1)[C@]34O)O2 ?
Result: t

Problem: # outcome recorded in this test, key = COc1cccc(N)c1
Result: t

Problem: Would you mind telling me which call this test gave O=C1c2ccccc2Cc2ccccc21 ?
Result: t

Problem: // outcome(item) with item = CC1(C)CCC(C)(C)c2cc(C(=O)Nc3ccc(C(=O)O)cc3)ccc21
Result: t

Problem: Hi, do you know how Nc1ccc2cc(S(=O)(=O)O)cc(O)c2c1N=Nc1ccccc1C(F)(F)F came out in this test?
Result: t
